Target: T1, ZFP SBS#1361 (synthetic)
T1 chain: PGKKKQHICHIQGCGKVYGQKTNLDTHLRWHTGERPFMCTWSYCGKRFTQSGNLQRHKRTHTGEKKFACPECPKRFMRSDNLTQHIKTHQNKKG
Assay: EMSA
Conditions: tags: MBP fusion
Observable: Kd (nM)

>>> df
                                     binder  units_symbol  value_observed
0  AAGGAAAAA (dsDNA) DNA 1: AAGGAAAAA DNA 2: TTTTTCCTT            nM           0.835
